assay-summary: sensitizers of A549 cells to miR-34 induction, primary screen, imaging, A549 dox-inducible miR-34, nuclei and caspase counts (AID 1347080); note: test concentration not given here
test-context: A549 miR-34 inducible, Hoechst nuclei count, 48 h; active compounds read low
Classification scheme (fold change): class A = under 0.9, class B = from 0.9 up to 1, class C = 1 and over

[
  {
    "compound": "NC1=NC(=O)C(c2ccccc2)O1 (stereo unspecified)",
    "class-label": "class B"
  },
  {
    "compound": "CC[C@@H]1/C=C/C=C/C[C@H](C)[C@@H](O)[C@](C)(O)C(=O)[C@H](C)[C@@H](O)[C@H](C)C(=O)[C@H](C)[C@@H](O)[C@H](C)/C=C/C(=O)O[C@H]2[C@@H](C)[C@@H](CC1)O[C@@]1(CC[C@@H](C)[C@@H](C[C@H](C)O)O1)[C@@H]2C",
    "class-label": "class A"
  },
  {
    "compound": "COc1ccc2c(c1OC)CN1CCc3cc4c(cc3C1C2)OCO4 (stereo unspecified)",
    "class-label": "class A"
  },
  {
    "compound": "CCCCCCC(=O)O[C@H]1CC[C@H]2[C@@H]3C[C@H](O)C4=CC(=O)CC[C@]4(C)[C@H]3CC[C@]12C",
    "class-label": "class B"
  },
  {
    "compound": "C[CH2][Hg][S]c1ccccc1C(=O)O",
    "class-label": "class C"
  },
  {
    "compound": "C[C@]12CC[C@H](O)C[C@H]1CC[C@@H]1[C@@H]2C[C@@H](O)[C@]2(C)[C@@H](C3=CC(=O)OC3)CC[C@]12O",
    "class-label": "class A"
  },
  {
    "compound": "O=C1CN=C(c2ccccc2Cl)c2cc([N+](=O)[O-])ccc2N1",
    "class-label": "class A"
  },
  {
    "compound": "C[C@@H]1O[C@H](C[N+](C)(C)C)C[C@H]1O",
    "class-label": "class C"
  },
  {
    "compound": "C[C@H](N)Cc1cccc(C(F)(F)F)c1",
    "class-label": "class B"
  },
  {
    "compound": "C=CCN1CC[C@]23c4c5ccc(O)c4O[C@H]2C(=O)CC[C@@]3(O)C1C5",
    "class-label": "class B"
  },
  {
    "compound": "Cc1cccc(Cc2cnc[nH]2)c1C",
    "class-label": "class B"
  },
  {
    "compound": "CN1CC[C@@]2(C)c3cc(O)ccc3N(C)C12 (stereo partly specified)",
    "class-label": "class C"
  },
  {
    "compound": "c1ccc2c(c1)Sc1ccccc1N2CC1CN2CCC1CC2 (stereo unspecified)",
    "class-label": "class A"
  },
  {
    "compound": "C[C@]12CC[C@H]3[C@@H](CC[C@]4(O)C[C@@H](O)CC[C@]34C=O)[C@@]1(O)CC[C@@H]2C1=CC(=O)OC1",
    "class-label": "class C"
  },
  {
    "compound": "N[C@@]1(C(=O)O)CC[C@@H](C(=O)O)C1",
    "class-label": "class C"
  },
  {
    "compound": "NCCc1cc(O)c(O)cc1O",
    "class-label": "class A"
  },
  {
    "compound": "CN(N=O)c1ccc(O)c(O)c1",
    "class-label": "class C"
  }
]

From: PubChem BioAssay
